Assay read-out IC50; system under study: CYP3A4 (Homo sapiens).
Sequence (P08684 whole entry): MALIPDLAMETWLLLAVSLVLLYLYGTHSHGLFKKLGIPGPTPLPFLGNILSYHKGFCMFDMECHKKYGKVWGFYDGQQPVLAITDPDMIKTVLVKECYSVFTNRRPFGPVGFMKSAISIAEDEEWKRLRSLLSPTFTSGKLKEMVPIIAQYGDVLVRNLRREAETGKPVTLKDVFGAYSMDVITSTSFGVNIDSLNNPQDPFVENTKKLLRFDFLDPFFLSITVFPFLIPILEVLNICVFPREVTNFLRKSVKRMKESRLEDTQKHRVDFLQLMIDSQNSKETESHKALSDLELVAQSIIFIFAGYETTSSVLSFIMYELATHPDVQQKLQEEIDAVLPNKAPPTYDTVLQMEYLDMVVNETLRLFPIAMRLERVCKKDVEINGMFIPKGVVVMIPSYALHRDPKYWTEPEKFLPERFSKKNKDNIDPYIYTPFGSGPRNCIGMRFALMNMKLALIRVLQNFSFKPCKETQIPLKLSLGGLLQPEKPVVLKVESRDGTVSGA

1. Cc1nc(N[C@H](C)c2cccc(C(F)F)c2F)c2cn(C3(CF)CC3)c(=O)c(N3CCOC[C@@H]3C)c2n1 > 30 µM

Now examine the next entry.
Input line: Give CYP3A4 (Homo sapiens) IC50 for `[2H][C@](C)(Nc1nc(C)nc2c(N3CCOCC3)c(=O)n(C3(CF)CC3)cc12)c1cccc(C(F)F)c1F`
Output line: > 30 µM

* * *

test system: p-ERK pathway in H358 cells; test: p-ERK pathway inhibition in H358 cells (Advanced phospho-ERK (Thr202/Tyr204) cellular kit, HTRF); assay type: cell-based; settings: Homo sapiens, NCI-H358, 1 h compound incubation
# maps each entry to its IC50
Hi! Could you send only the number? It should be in nM, unit omitted.

Worked cases, answers included:
molecule	IC50 [nM]
COc1c(=O)n(C2(CF)CCN(C(C)=O)C2)cc2c(N[C@H](C)c3cccc(C(F)F)c3F)nc(C)nc12 (stereo partly drawn) [Example 8]	92.9
Cc1nc(N[C@H](C)c2cccc(C(F)(F)F)c2C)c2cn(N3CCOCC3)c(=O)c(N3CCN(C)CC3)c2n1 [Example 70]	34.5
[2H]C([2H])([2H])[C@@H](Nc1nc(C)nc2c(N3CCOC[C@@H]3C)c(=O)n(C3(CF)CC3)cc12)c1cccc(C(F)F)c1F [Example 113]	70

Input line: # query: IC50 of entry Cc1nc(N[C@H](C)c2cccc(C(F)F)c2F)c2cn(N3CCOCC3)c(=O)c(-c3cnn4c3COCC4)c2n1 [Example 138]
Output line: 63.1

Input line: Recorded IC50 for [2H][C@](C)(Nc1nc(C)nc2c(N3CCOC[C@@H]3C)c(=O)n(C3(CF)CC3)cc12)c1cccc(C(F)F)c1F [Example 112] , please?
Output line: 109

Input line: Which IC50 is reported for this molecule? Cc1nc(N[C@H](C)c2cccc(C(F)F)c2F)c2cn(C3(CF)CC3)c(=O)c(N3CCN(C)CC3)c2n1 [Example 38]
Output line: 100

Input line: Requested field: IC50. Item: Cc1nc(N[C@H](C)c2cccc(C#N)c2C)c2cn(N3CCOCC3)c(=O)c(N3CCN4C(=O)OC[C@H]4C3)c2n1 [Example 99]
Output line: 112

Input line: Request the reported IC50 associated with Cc1nc(N[C@H](C)c2cccc(C(F)F)c2F)c2cn(C3(CF)CC3)c(=O)c(S(C)(=O)=O)c2n1 [Example 66]
Output line: 76.8

Input line: Tell me the measured IC50 of Cc1nc(N[C@H](C)c2cccc(C(C)(F)F)c2F)c2cn(C3(CF)CC3)c(=O)c(N3CCOC[C@@H]3C)c2n1 [Example 114] , please.
Output line: 54.8

Input line: // returns reported IC50 for input Cc1nc(N[C@H](C)c2cccc(C(F)F)c2F)c2cn(N3CCOCC3)c(=O)c(N3CCOC[C@@H]3C)c2n1 [Example 68]
Output line: 15.3

Input line: Would you kindly share the measured IC50 for Cc1nc(N[C@H](C)c2cccc(C(F)F)c2F)c2cn(C3(CF)CC3)c(=O)c(OCc3ccccn3)c2n1 [Example 122] ?
Output line: 111

Input line: Need IC50 of Cc1nc(N[C@H](C)c2cccc(C#N)c2C)c2cn(N3CCOCC3)c(=O)c(-c3ccnc(N4CCOCC4)c3)c2n1 [Example 163] , thanks.
Output line: 43.9

Input line: Tell me the measured IC50 of COc1ccc(-c2c(=O)n(N3CCOCC3)cc3c(N[C@H](C)c4cccc(C#N)c4C)nc(C)nc23)cn1 [Example 162] , please.
Output line: 77.5

Input line: Recorded IC50 of Cc1nc(N[C@H](C)c2cccc(C#N)c2C)c2cn(N3CCOCC3)c(=O)c(N3CCN(C)CC3)c2n1 [Example 76] , please.
Output line: 113

Input line: Give the measured IC50 of Cc1nc(N[C@H](C)c2cccc(C(F)F)c2F)c2cn(C3(CF)CC3)c(=O)c(N3CCO[C@H](C)C3)c2n1 [Example 42] .
Output line: 41.8

Input line: Name the reported IC50 value associated with the molecule COc1c(=O)n(N2CCOCC2)cc2c(N[C@H](C)c3cccc(S(F)(F)(F)(F)F)c3)nc(C)nc12 [Example 25]
Output line: 107
